- Protocol: in vivo
- Conditions: female, cattle
Observed property: half-life

For "CC(=O)[C@H]1CC[C@H]2[C@@H]3CCC4=CC(=O)CC[C@]4(C)[C@H]3CC[C@]12C" , what is its reported half-life?
~20 min
